# System: Ruminococcus gnavus DSM 108212
# ASSAY: fold change of 2-Phenylethylamine concentration vs plate DMSO controls (fold change (ratio)); higher = more amine produced, active = hit call of the paper (significant change in both replicates, either direction);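 for the amine columns active = adjusted P below 0.05 in both replicates with a change the same way and a mean fold change under 0.8 or over 1.25; inactive = the rest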
# CONDITION: incubation time: 27 h, anaerobic, 37 °C
Where a name gives a salt, the structure may show the parent alone.
Hi there, use one of these labels in your reply, thanks! y = active, n = inactive

// below: answered molecules
INSERT INTO results (molecule, group_label) VALUES
  ('C=C(C)[C@@H]1CC=C(/C=N/O)CC1 [Perillartine] (50 µM)', 'n'),
  ('Clc1ccc(COC(Cn2ccnc2)c2ccc(Cl)cc2Cl)cc1 (centres undefined) [Econazole nitrate] (20 µM)', 'y'),
  ('COc1cc(N)c(Cl)cc1C(=O)NC1CCN(Cc2ccccc2)CC1 [Clebopride maleate] (20 µM)', 'n');

Prompt: Could you please tell me the result logged for COC(=O)C1=C(C)NC(C)=C(C(=O)OCC(C)C)C1c1ccccc1[N+](=O)[O-] (centres undefined) [Nisoldipine] (20 µM) in this assay?
Response: n

These data points were gathered from the supplement of paper PMC12494721.
